Experiment: viability loss in pontine glioma line – cell-based, SU-DIPG-XIII, MIPE5.0, CellTiter-Glo, qHTS, dose response (AID 1347064);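 for AC50: cells exposed to compound for 48 hours before the viability read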
Conditions: CellTiter-Glo ATP luminescence
Results filed as inconclusive are left out. Activity calls are given as the source filed them. No cut-off is given here; in the data, nearly all actives have AC50 up to about 23 µM.
Classes used: class 1 (active), class 0 (inactive)

>  <smiles.text>
CC(=O)N1CCC[C@H]1C(=O)N[C@@H](Cc1cnc[nH]1)C(=O)N[C@@H](CO)C(=O)N[C@@H](CS)C(=O)N[C@@H](CC(N)=O)C(N)=O

>  <label.class>
class 0

$$$$
>  <smiles.text>
Cc1cccc(-c2[nH]c(C(C)(C)C)nc2-c2ccc3c(c2)OCO3)n1

>  <label.class>
class 1

$$$$
>  <smiles.text>
Cc1cccc(-c2[nH]c(C(C)(C)C)nc2-c2ccc3nccnc3c2)n1

>  <label.class>
class 1

$$$$
>  <smiles.text>
CC(C)(N)C(=O)N[C@H](COCc1ccccc1)C(=O)N1CCC2(CC1)CN(S(C)(=O)=O)c1ccccc12

>  <label.class>
class 0

$$$$
>  <smiles.text>
Cc1cc(O)c(-c2ccc([C@@H](C)CN)cc2)c2c1[nH]c(=O)c1sccc12

>  <label.class>
class 1

$$$$
>  <smiles.text>
c1cc(Nc2cc(C3CC3)[nH]n2)nc(Nc2ccc3nc[nH]c3c2)n1

>  <label.class>
class 1

$$$$
>  <smiles.text>
c1ccc2c(CCNc3ccc(Nc4ccncc4)cc3)c[nH]c2c1

>  <label.class>
class 1

$$$$
>  <smiles.text>
C[C@@H](Oc1cc(C(=O)Nc2ccc(C(=O)N3CCN(C)CC3)cc2)nnc1N)c1c(Cl)ccc(F)c1Cl

>  <label.class>
class 1

$$$$
>  <smiles.text>
Clc1ccc2c(N3CCN(CCCN4CCN(c5ccnc6cc(Cl)ccc56)CC4)CC3)ccnc2c1

>  <label.class>
class 0

$$$$
